experiment: Mycobacterium tuberculosis growth inhibition, primary screen (AID 1259343)
measurement parameters: at 10 µM, active compounds read high
Screen size: about 6,200 compounds; about 2,900 (47%) were called active. The set was probably picked from earlier hits. Some of the results follow.
The reader will find reported inhibition values listed item by item below.
readout: inhibition (%)

CN=c1scc(-c2ccc(F)cc2)n1N=C(C)c1ccncc1: 18.1
COc1ccc(Cc2nc(-c3ccc(Br)cc3)no2)cc1: -10.8
NC(CCCc1ccccc1)c1ccccc1 (centres undefined): 15.7
Cc1cc(C=C2Sc3ccccc3N2C)cc(C)[n+]1-c1ccccc1: 41.1

====

experiment: Mycobacterium tuberculosis growth inhibition, primary screen (AID 1259343)
measurement parameters: at 10 µM, active compounds read high
In all, about 6,200 compounds went through this assay and about 2,900 (47%) were called active. The set was probably picked from earlier hits. The list shows a part of the results.
readout: inhibition (%)

Cc1nc(C(C)C)sc1C(=O)Nc1nc2ccccc2[nH]1: 100
CC1=CC(=NNc2nc3ccccc3[nH]2)CC(C)(C)C1: 24.5
O=c1c(Sc2ccc(Cl)cc2)c(O)c2c(n1-c1ccccc1)CCCC2: 40.5
N#Cc1cccc(CSc2nnc(-c3cccc(Br)c3)o2)c1: 5.74

====

experiment: Mycobacterium tuberculosis growth inhibition, primary screen (AID 1259343)
measurement parameters: at 10 µM, active compounds read high
The campaign covered roughly 6,200 compounds. About 2,900 (47%) were called active. So high a share suggests a set chosen from earlier hits. The list shows a part of the results.
Decision: inhibition >= 40% yields YES, all other cases yield NO.

Cc1cc(NC(=O)c2ccccc2)n(-c2nc3c(c(=O)[nH]2)CCC3)n1: NO
COc1ccc(CC2CCN(S(=O)(=O)c3ccc(Cl)cc3)CC2)cc1: YES
CC(NC(=O)CCl)c1cccc2ccccc12 (stereo not drawn): YES
Clc1ccc2nc(SCCC3CCCCC3)[nH]c2c1: NO
CN(C)CCCOc1ccc(-c2nnc3ccc(-c4cccc(Oc5ccccc5)c4)cn23)cc1: YES
S=c1nc(-c2ccc(Br)cc2)[nH][nH]1: NO
Clc1ccc(CCCc2nc3ccc(Cl)cc3[nH]2)c(Cl)c1: YES
Clc1ccc(Cl)c(SCCSc2ncn[nH]2)c1: NO
CCOc1ccc(N2C(=O)C3N=NN(Cc4cc(C)ccc4C)C3C2=O)cc1 (stereo not drawn): YES
Cc1cccc(OCC(=O)NC(C)c2cc3ccccc3o2)c1C (stereo not drawn): YES
Cc1cc(C)c(C)c(C(=O)/C=C/C(=O)O)c1C: YES
COc1ccc(N2CCN(Cc3cc(C)c(C)cc3O)CC2)cc1: YES
COc1ccc(CC2CCN(S(=O)(=O)c3ccc(C#N)cc3)CC2)cc1: YES
CCc1ccc(S(=O)(=O)N2CCC(CO)(Cc3ccc(OC)cc3)CC2)s1: NO
CC(NC(=O)CCl)c1cc2ccccc2o1 (stereo not drawn): YES
Cc1cc(NC(=O)c2ccccc2C)n(-c2nc3c(c(=O)[nH]2)CCC3)n1: YES
COc1ccc(S(=O)(=O)N2CC3(C)CC2CC(C)(C)C3)cc1 (stereo not drawn): NO
Cc1ccccc1CN1CCN(c2ccc(S(=O)(=O)C(F)F)cc2)CC1: NO
CNS(=O)(=O)Cc1ccc(CNc2ccc(C(F)(F)F)cn2)cc1: YES
Cc1ccc(-c2nnn(CC(=O)N3CCCCCC3)n2)cc1: NO
CN(C)CC[C@H](c1ccc(Cl)cc1)c1ccccn1: NO
Cc1ccc(Sc2cncc3sc(C(N)=O)cc23)cc1: YES
C=C=C/C=C/C=C\Oc1ccc(CO)cc1O/C=C\C=C\C=C=C: YES

====

Reported inhibition values are given for each entry in this list.
experiment: Mycobacterium tuberculosis growth inhibition, primary screen (AID 1259343)
measurement parameters: at 10 µM, active compounds read high
About 2,900 (47%) of roughly 6,200 compounds were called active. So high a share suggests a set chosen from earlier hits. This is one part of the list.
readout: inhibition (%)

COc1ccccc1CN(Cc1cccc(C(F)(F)F)c1)Cc1nc(C(=O)O)co1: 9.16
Brc1cc(CNC2C3CCCC2CN(C2CC2)C3)cs1 (stereo unspecified): 23.7
CS(=O)(=O)Nc1ccc(/C=C/C(=O)NCCc2cccc(F)c2)cc1: 52.3
Cc1cc([N+](=O)[O-])cc(C(C)(C)C)c1O: 101
CCCCCCCCNC(C)C(O)c1ccc(SC(C)C)cc1 (stereo unspecified): 3.63
CCc1ccc(N2C(=O)/C(=C/c3cc(C)n(-c4ccc(C(=O)O)cc4)c3C)C(=O)NC2=S)cc1: 34.2
O=C(c1ccc(-c2ccccc2)cc1)C1CCCN(C(=O)c2ccsc2)C1 (stereo unspecified): 74.6
O=C(c1ccc(-c2ccccc2)cc1)C1CCCN(C(=O)CSc2ncccn2)C1 (stereo unspecified): 9.54
CCC(C)(C)C1CCC(NC(=O)c2cccc(-n3cnnn3)c2)CC1 (stereo unspecified): 24.6
CN(NC(=O)CC(=O)NN(C)C(=S)c1ccccc1)C(=S)c1ccccc1: 102
O=C(c1ccc2ccccc2c1)C1CCCN(S(=O)(=O)Cc2ccccc2)C1 (stereo unspecified): 23.8

====

experiment: Mycobacterium tuberculosis growth inhibition, primary screen (AID 1259343)
measurement parameters: at 10 µM, active compounds read high
In all, about 6,200 compounds went through this assay and about 2,900 (47%) were called active. So high a share suggests a set chosen from earlier hits. This is one part of the list.
Rule: Y for inhibition not less than 70%, N for anything less.

O=C(Cc1c[nH]c2cccc(Br)c12)OCC1CC1: N
O=C(Nc1ccc(-c2ccco2)cc1)C1CCCN(C(=O)CCc2cnccn2)C1 (stereo not given): N
CCc1ccc(-c2ccc(=O)n(Cc3ccccc3C)n2)cc1: N
O=C(NC(c1ccccc1)c1ccc2ccccc2n1)C1CCN(Cc2ccc(Oc3ccccc3)cc2)CC1 (stereo not given): N
Cc1csc2nc(CNc3ccc(NC(=O)C4CC4)cc3C(F)(F)F)cc(=O)n12: N
O=C(Nc1cccc(-c2noc(C3CC3)n2)c1)C1CCOCC1: N
O=[N+]([O-])c1ccc(C=NNc2ccc(Cl)cc2)o1: N
O=[N+]([O-])c1ccc(C=NNc2ccnc3cc(Cl)ccc23)o1: Y
O=[N+]([O-])c1ccc(C=Nn2cnn(Cc3ccccc3Cl)c2=S)o1: N
O=c1ccc(-c2ccc3c(c2)OCO3)nn1Cc1cccc2ccccc12: N
O=C(CSC(F)(F)F)NCC1CCC1: N
CC(C)c1ccc2[nH]c3c(c2c1)CCC/C3=N\N=C/c1ccncc1: Y
O=[N+]([O-])c1ccc(CON=Cc2ccc(Cl)cc2Cl)cc1: N
C(=Nn1c(-c2ccco2)csc1=NC1CCCCC1)c1ccccn1: N
COc1ccc(C=C2CC3C4CC=C5CC(O)CCC5(C)C4CCC3(C)C2O)cc1 (stereo not given): N
CCOc1ccc(CSc2n[nH]c(-c3ccccn3)n2)nc1: Y
CC(C)OCCCNC(=O)Cc1cc(-c2cc3ccccc3o2)on1: Y
O=C(Nc1ccc(-c2ccco2)cc1)C1CCCN(C(=O)CCN2CCCO2)C1 (stereo not given): Y
Nc1nccnc1C(=O)Nc1ccc(SC2CCCC2)cc1: Y
CC(C)c1nc(Cn2ccnc2-c2ccc(C3CCCCO3)s2)no1 (stereo not given): N
CN(CCCc1ccccc1)Cc1nc(C2CC2)no1: Y
Cn1c(Sc2ncc(-c3ccc(F)cc3)[nH]2)c(C#N)c(=O)n(C)c1=O: N
CCCC(C)NC(=O)Cn1cnc2cc(F)ccc2c1=O (stereo not given): Y
N#CC(=CC=Cc1ccc([N+](=O)[O-])o1)c1nc2ccccc2[nH]1: Y
O=C(CSc1nnc(SCC(=O)NC2CCCC2)s1)NC1CCCC1: N
Cc1ccccc1Cn1nc(-c2ccccc2)ccc1=O: N
N=C1SCC(=O)N1c1ncc(Cc2ccccc2)s1: Y
Cc1ccccc1Cn1nc(-c2ccc3c(c2)OCO3)ccc1=O: Y
CC(C)(C)c1nnc2sc(SCC(=O)NCC3CCCCC3)nn2c1=O: Y
CCC(Nc1ccccc1)c1nc(C2CCC2)no1 (stereo not given): N
O=C(Nc1ccc(SC2CCCC2)cc1)c1ccc(=O)[nH]c1: N
N#CC(=Cc1ccsc1)c1nc2ccccc2s1: N
Fc1ccc(-c2[nH]ncc2CN2CCC(c3ccccc3F)C2)c(F)c1 (stereo not given): Y
c1ccc(N2CCCC2)c(CNc2nc3ccccc3o2)c1: N
Cc1csc(C(C#N)=Cc2cccc(O)c2)n1: Y

====

experiment: Mycobacterium tuberculosis growth inhibition, primary screen (AID 1259343)
measurement parameters: at 10 µM, active compounds read high
Hit rate of the full screen: of about 6,200 compounds, about 2,900 (47%) were called active. The set was probably picked from earlier hits. Some of the results follow.
Label true (1) when inhibition >= 50%; otherwise false (0).

CCCCc1ccc(Nc2nnc(SCC(=O)NC3CCCC3)s2)cc1: true (1)
Cc1nnc2sc(COc3ccc(Cl)cc3Cl)nn2c1=O: true (1)
O=[N+]([O-])c1ccc(N2CCNCC2)cc1NC1C2CC3CC(C2)CC1C3 (centres undefined): true (1)
CC1=Nn2cc(-c3ccccc3)nc2SC1c1ccccc1 (centres undefined): false (0)
CCc1ccc(Nc2nnc(SCC(N)=O)s2)cc1: false (0)
CN(CC(O)COCc1ccc2c(c1)OCO2)c1ncc(C(F)(F)F)cc1Cl (centres undefined): true (1)
CCCCc1ccc(Nc2nnc(SCC(=O)NCC)s2)cc1: true (1)
CCCn1ccnc1SCC(=O)NC(=O)NC12CC3CC(CC(C3)C1)C2: false (0)
FC(F)(F)c1cnc(NCc2ccc3c(c2)OCCO3)c(Cl)c1: false (0)
C(=Nc1ccc(C23CC4CC(CC(C4)C2)C3)cc1)c1ccncc1: false (0)
CN(Cc1ccc(Cl)cc1Cl)C(=O)C1CCN(c2ccccc2[N+](=O)[O-])CC1: false (0)
CNC(=O)c1cc(Oc2ccc(NC(=O)Nc3ccc(Cl)c(C(F)(F)F)c3)c(F)c2)ccn1: false (0)
O=[N+]([O-])c1ccc(Cl)cc1NN=C1C2CC3CC1CC(O)(C3)C2: false (0)
CCCCNC(=O)CSc1nnc(Nc2ccc(CC)cc2)s1: false (0)
